Measured Viable counts, Escherichia coli time kill study accompanies every entry in the list below.
- Test system: Escherichia coli
- assay_text: Extended time kill study, Example 34 (0 to 24 h)
- Format: cell-based
- test_context: 1 × MIC, 24 h
Where a name gives a salt, the structure may show the parent alone.

{"molecule": "CCCCCCCCCCCCOC(=O)C(C)NC(C)C.Cl (centres unmarked) [Nex-60]", "target_of_assay": "Escherichia coli", "measured": "<1 Log10 CFU/mL"}
{"molecule": "CCCCCCCCCCCCOC(=O)C(C)NC.Cl (centres unmarked) [Nex-59]", "target_of_assay": "Escherichia coli", "measured": "7.91 Log10 CFU/mL"}
{"molecule": "CCCCCCCCCCCCOC(=O)C(C)N(C)C (centres unmarked) [Nex-05, hydrochloride]", "target_of_assay": "Escherichia coli", "measured": "<1 Log10 CFU/mL"}
{"molecule": "CCCCCCCCCCCCOC(=O)C(C)NCCO.Cl (centres unmarked) [Nex-61]", "target_of_assay": "Escherichia coli", "measured": "7.75 Log10 CFU/mL"}

Shifting focus to the molecule that follows.
Inquiry: Using the record for CCCCCCCCCCCCOC(=O)C(C)NCCN(CC)CC.Cl (centres unmarked) [Nex-62] , report its Viable counts, Escherichia coli time kill study.
Reply text: 7.99 Log10 CFU/mL

* * *

- System: Pseudomonas aeruginosa (ATCC 27853)
- assay_text: Time kill study, Example 33 (0 to 5 min)
- Format: cell-based
- test_context: 1×MIC, 0.5 min
Structures can show the parent of a compound that is named as a salt.
Classify as follows. Reported Viable counts, Pseudomonas aeruginosa time kill study greater than or equal to 5 Log10 CFU/mL: 1.0. Reported Viable counts, Pseudomonas aeruginosa time kill study below: 0.0.

{"molecule": "CCCCCCCCCCOC(=O)C(C)N(C)C (centres unmarked) [Nex-68, hydrochloride]", "target_of_assay": "Pseudomonas aeruginosa (ATCC 27853)", "label": 1.0}
{"molecule": "CCCCCCCCCCCCOC(=O)C(C)N(C)C (centres unmarked) [Nex-46]", "target_of_assay": "Pseudomonas aeruginosa (ATCC 27853)", "label": 0.0}

Inquiry: // inclusive: Viable counts, Pseudomonas aeruginosa time kill study at least 5 Log10 CFU/mL? input: CCCCCCCCCCCC(C)(C)OC(=O)C(C)N(C)C.Cl (centres unmarked)
Reply text: 1.0

Inquiry: // inclusive: Viable counts, Pseudomonas aeruginosa time kill study at least 5 Log10 CFU/mL? input: CCCCCCCCCCCCOC(=O)C(C(C)C)N(C)C (centres unmarked) [Nex-53, hydrochloride]
Reply text: 1.0

Inquiry: // inclusive: Viable counts, Pseudomonas aeruginosa time kill study at least 5 Log10 CFU/mL? input: CCCCCCCCCCCC(C)OC(=O)C(C)N(C)C (centres unmarked) [Nex-64, hydrochloride]
Reply text: 0.0

* * *

Measured Viable counts in Log10 CFU/mL accompanies every entry in the list below.
- Test system: Aspergillus niger
- assay_text: Extended time kill study, Example 34 (0 to 24 h)
- Type: cell-based
- test_context: 4 × MIC, 1 h
Where a name gives a salt, the structure may show the parent alone.
Output spec: scalar in Log10 CFU/mL, unitless text.

Answered cases to consult:
{"compound": "CCCCCCCCCCCCOC(=O)C(C)NCCN(CC)CC.Cl (centres unmarked) [Nex-62]", "Viable counts in Log10 CFU/mL (Log10 CFU/mL)": 5.49}
{"compound": "CCCCCCCCCCCCOC(=O)C(C)NC.Cl (centres unmarked) [Nex-59]", "Viable counts in Log10 CFU/mL (Log10 CFU/mL)": 5.08}
{"compound": "CCCCCCCCCCCCOC(=O)C(C)NCCO.Cl (centres unmarked) [Nex-61]", "Viable counts in Log10 CFU/mL (Log10 CFU/mL)": 5.34}
{"compound": "CCCCCCCCCCCCOC(=O)C(C)N(C)C (centres unmarked) [Nex-05, hydrochloride]", "Viable counts in Log10 CFU/mL (Log10 CFU/mL)": 4.48}

Shifting focus to the compound that follows.
Inquiry: Using the record for CCCCCCCCCCCCOC(=O)C(C)NC(C)C.Cl (centres unmarked) [Nex-60] , report its Viable counts in Log10 CFU/mL.
Reply text: 4.00

* * *

Measured MIC S. aureus accompanies every entry in the list below.
- System: Staphulococcus aureus (ATCC 29213)
- assay_text: Minimum inhibitory concentration (MIC) assay, Example 33
- Assay type: cell-based, Staphylococcus aureus
- test_context: n = 2
Output spec: scalar in µg/mL, unitless text.

Answered cases to consult:
{"compound": "CCCCCCCCCCCCOC(=O)C(C)N(C)C (centres unmarked) [Nex-46]", "target_of_assay": "Staphulococcus aureus (ATCC 29213)", "attribute_measured": "MIC S. aureus", "measured": 3130}
{"compound": "CCCCCCCCCCCCOC(=O)C(C)N(C)C (centres unmarked) [Nex-30]", "target_of_assay": "Staphulococcus aureus (ATCC 29213)", "attribute_measured": "MIC S. aureus", "measured": 3130}

Inquiry: Param readout= MIC S. aureus; system= Staphulococcus aureus (ATCC 29213); entry= CCCCCCCCCCCCOC(=O)[C@H](C)N(C)C.Cl ; returns value.
Reply text: 3130

Inquiry: Param readout= MIC S. aureus; system= Staphulococcus aureus (ATCC 29213); entry= CCCCCCCCCCCCOC(=O)C(C)N(C)C.CCCCCCCCCCCCOC(=O)C(C)N(C)C.O=S(=O)(O)c1cccc2c(S(=O)(=O)O)cccc12 (centres unmarked) ; returns value.
Reply text: 1560

Inquiry: Param readout= MIC S. aureus; system= Staphulococcus aureus (ATCC 29213); entry= CCCCCCCCCCCCOC(=O)[C@@H](C)N(C)C.Cl ; returns value.
Reply text: 3130

* * *

- System: Aspergillus niger (CMCC 98003)
- assay_text: Time kill study, Example 33 (0 to 5 min)
- Format: cell-based
- test_context: 1×MIC, 0.5 min
Counter-ions that a name gives are not always drawn.
attribute_measured: Viable counts, Aspergillus niger time kill study

Answered cases to consult:
{"compound": "CCCCCCCCCCOC(=O)C(C)N(C)C (centres unmarked) [Nex-68, hydrochloride]", "measured": "5.25 Log10 CFU/mL"}
{"compound": "CCCCCCCCCCCCOC(=O)C(C)NCCO.Cl (centres unmarked)", "measured": "5.30 Log10 CFU/mL"}

Inquiry: Using the record for CCCCCCCCCCCCOC(=O)CN(C)C [Nex-52, hydrochloride] , report its Viable counts, Aspergillus niger time kill study.
Reply text: 5.28 Log10 CFU/mL

Inquiry: Using the record for CCCCCCCCCCCCOC(=O)C(C)NCCN(CC)CC.Cl (centres unmarked) , report its Viable counts, Aspergillus niger time kill study.
Reply text: 5.32 Log10 CFU/mL

Inquiry: Using the record for CCCCCCCCCCCCOC(=O)C(C)NC.Cl (centres unmarked) , report its Viable counts, Aspergillus niger time kill study.
Reply text: 5.30 Log10 CFU/mL

* * *

- assay_text: pH (Table 1)
- Type: physicochemical
Structures can show the parent of a compound that is named as a salt.
Measured pH accompanies every entry in the list below.

{"compound": "CCCCCCCCCCCCOC(=O)[C@H](C)N(C)C.Cl", "measured": 1.57}
{"compound": "CCCCCCCCCCCOC(=O)C(C)N(C)C (stereo not shown) [Nex-67, hydrochloride]", "measured": 3.77}
{"compound": "CCCCCCCCCCCCOC(=O)[C@@H](C)N(C)C.Cl", "measured": 1.70}
{"compound": "CCCCCCCCCCCCOC(=O)C(C(C)O)N(C)C (stereo not shown) [Nex-51, hydrochloride]", "measured": 0.56}
{"compound": "CCCCCCCCCCCCOC(=O)C(C)N(C)C (stereo not shown) [Nex-46]", "measured": 2.95}

Inquiry: Using the record for CCCCCCCCCCCCOC(=O)C(C)NCCN(CC)CC.Cl (stereo not shown) , report its pH.
Reply text: 0.73

Inquiry: Using the record for CCCCCCCCCCOC(=O)C(C)N(C)C (stereo not shown) [Nex-68, hydrochloride] , report its pH.
Reply text: 0.87

Inquiry: Using the record for CCCCCCCCCCCCOC(=O)C(C)N(C)C.CCCCCCCCCCCCOC(=O)C(C)N(C)C.O=S(=O)(O)c1cccc2c(S(=O)(=O)O)cccc12 (stereo not shown) , report its pH.
Reply text: 3.87

Inquiry: Using the record for CCCCCCCCCCCCOC(=O)CN(C)C [Nex-52, hydrochloride] , report its pH.
Reply text: 3.30

* * *

- System: Candida albicans (ATCC 90029)
- assay_text: Minimum inhibitory concentration (MIC) assay, Example 33
- Format: cell-based
- test_context: Candida albicans, ATCC90029, Table 19 summary
Where a name gives a salt, the structure may show the parent alone.
Measured MIC accompanies every entry in the list below.

Answered cases to consult:
{"compound": "CCCCCCCCCCCCOC(=O)C(CC(C)C)N(C)C (stereo not drawn) [Nex-55, hydrochloride]", "target_of_assay": "Candida albicans (ATCC 90029)", "measured": "> 12500 µg/mL"}
{"compound": "CCCCCCCCCCCC(C)OC(=O)C(C)N(C)C (stereo not drawn) [Nex-64, hydrochloride]", "target_of_assay": "Candida albicans (ATCC 90029)", "measured": "> 12500 µg/mL"}
{"compound": "CCCCCCCCCCCCCCOC(=O)C(C)N(C)C (stereo not drawn) [Nex-66, hydrochloride]", "target_of_assay": "Candida albicans (ATCC 90029)", "measured": "> 12500 µg/mL"}
{"compound": "CCCCCCCCCCCCOC(=O)CN(C)C [Nex-52, hydrochloride]", "target_of_assay": "Candida albicans (ATCC 90029)", "measured": "50 µg/mL"}
{"compound": "CCCCCCCCCCOC(=O)C(C)N(C)C (stereo not drawn) [Nex-68, hydrochloride]", "target_of_assay": "Candida albicans (ATCC 90029)", "measured": "390 µg/mL"}
{"compound": "CCCCCCCCOC(=O)C(C)N(C)C (stereo not drawn) [Nex-70, hydrochloride]", "target_of_assay": "Candida albicans (ATCC 90029)", "measured": "780 µg/mL"}
{"compound": "CCCCCCCCCCCCOC(=O)C(C)N(C)C (stereo not drawn) [Nex-05, hydrochloride]", "target_of_assay": "Candida albicans (ATCC 90029)", "measured": "> 12500 µg/mL"}
{"compound": "CCCCCCCCCCCCCOC(=O)C(C)N(C)C (stereo not drawn) [Nex-69, hydrochloride]", "target_of_assay": "Candida albicans (ATCC 90029)", "measured": "12500 µg/mL"}

Shifting focus to the compound that follows.
Inquiry: Using the record for CCCCCCCCCCCCOC(=O)C(C(C)C)N(C)C (stereo not drawn) [Nex-53, hydrochloride] , report its MIC.
Reply text: > 12500 µg/mL
